- Experimental target: T1, recombinant biotinylated monomeric Fc fusion of cynomolgus Folate Receptor 1 (cy FolR1 ECD-AcTev-Fcknob-Avi … (cynomolgus, UniProt P0DOX5 223-449 = IgG part, biotin on the C-terminal Avi tag))
- T1 construct: also called cyFolR1-Fc; cyno FolR1
- Method: SPR ProteOn, Fab analyte on immobilized antigen-Fc
Property label: Kd (nM)

[[record]]
binder = "15B6 Fab (Fab, V domains shown, bacterial Fab) VH: QVQLVQSGAEVKKPGASVKVSCKASGYTFTSYYMHWVRQAPGQGLEWMGIINPSGGSTSYAQKFQGRVTMTRDTSTSTVYMELSSLRSEDTAVYYCARNYYIGIVPFDYWGQGTLVTVSS VL: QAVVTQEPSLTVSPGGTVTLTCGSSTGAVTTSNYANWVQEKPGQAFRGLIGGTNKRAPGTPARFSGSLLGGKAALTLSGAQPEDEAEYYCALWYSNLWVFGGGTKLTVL"
experimental_value = 13.9

